# System: K4 kissing-loop RNA reporter;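 also: bound reporter read as fluorescence of individual clusters on recovered sequencing chips by microscopy, with normalized cluster intensities fitted with a binding model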
# assay_protocol: apparent KD of K4 kissing-loop reporter; higher = weaker reporter binding
# experimental_context: Eterna round: R107; input ligand: tryptophan 2.4 mM
reported_property: apparent KD of K4 kissing-loop reporter
Output should be the measured figure followed by the unit it is expressed in.

Request: Any idea what its apparent KD of K4 kissing-loop reporter is? The sequence is AGACGAGAUGAAGGAUAUGCGGACAAAGUGAUGUUUUGUCCGAAAGUAGGCAGUAAUAUCGAAAAUGCAGAAGGUCAAGAACAUA [theeternabot_exclusion_KL_FMN_B_36]
Result: 0.145 µM

Request: Any idea what its apparent KD of K4 kissing-loop reporter is? The sequence is GCAGUGAUGUUGCACGAGUAGGCUGGAGUACGAGGACCGGUACGGCCGCCACUCGUACGGAAGUCGCUAAUUUAUGGAAUGGUGA [#06 K4 Tryptophan A Same State]
Result: 0.436 µM

Request: Any idea what its apparent KD of K4 kissing-loop reporter is? The sequence is AGUGUUAGGUUAGAUACCAGCCGUCUGUGAGUAACCCACAGACCGCCAGUGAUGUUGGCAGGCCCUUGGCAGCUAACAGGACAGA [Anesarerza]
Result: 0.211 µM

Request: Any idea what its apparent KD of K4 kissing-loop reporter is? The sequence is ACUGAGUUGACGAAAGUCAACAAUUGAGAAGGAGCGCACGAAAGUGCAGGUAGGUCGCUCAGUCCAGUGAUGUUGGAUCAUCAGA [#17 K4 Arginine A Same State]
Result: 0.275 µM

Request: Any idea what its apparent KD of K4 kissing-loop reporter is? The sequence is CCGUGGAGUGAUGUUCCACGUUCUACGGAUACCAGCUUUGCCAAAGGCCCUUGGCAGCCGCACCUUGCAGUGAUGUUGUGAGGCU [Same State Theophylline A Gf7]
Result: 0.274 µM

Request: Any idea what its apparent KD of K4 kissing-loop reporter is? The sequence is GGCUCCUACGCAGGAUAUAGUAGCCGAGAGUGAUGUUCUACGGCGUUUGCCGAUUUAGUCACAGAUCUAGAAGGGUGUAGGAGCC [XFMN-B PiClone]
Result: 1 µM

Request: Any idea what its apparent KD of K4 kissing-loop reporter is? The sequence is CAGAUCACAGAGUGAUGUUCUGUGUCCGAAGGAGCGCGCGAGAGCGCAGGUAGGUCGCGGAUACAGUUGACGUACCAUCUAGACA [Arg A Ex t3b]
Result: 0.269 µM

Request: Any idea what its apparent KD of K4 kissing-loop reporter is? The sequence is UUUUUUUACUGAAGGAGCGGCAAUUGAUACGUAGAUAUAGUGAUGUUAUAUAAGAUAGAGAGCCAGGUAGGUCGCAGAUUUUUUU [ExArgB.W]
Result: 0.147 µM

Request: Any idea what its apparent KD of K4 kissing-loop reporter is? The sequence is AGUAGUUGGGCGGCCGCCACUGGAACAGCUUUGUCAAAGACAGAGCACUAGAGUGAUGUUCUAGCUAGGACCGGGUCCAACUACA [whbob_SS_Tryp_B_t17]
Result: 0.991 µM

Request: Any idea what its apparent KD of K4 kissing-loop reporter is? The sequence is AGUGUUAGGUUAGAUACCAGCCGUCUGUAGAUAAUCCUCAGACCGCCAGUGAUGUUGGCAGGCCCUUGGCAGCUAACAGAACAGA [Orbediqu]
Result: 0.214 µM

Request: Any idea what its apparent KD of K4 kissing-loop reporter is? The sequence is UGUCAUUGGUCGGCCGCCACUUCGUGUAGAGUGAUGUUUUGUAGGACGGAUCGAAAGAUCUGUCGGAGGACCGGGACCGAUGACU [FiskerMod 17 - Jieux - Same State - Tryptophan B]
Result: 0.889 µM

Request: Any idea what its apparent KD of K4 kissing-loop reporter is? The sequence is CCAUCGCUGUUCGAUACCAGUCAUUUUUUAUUUUAUUUUUUUUUUGGAGUGAUGUUCCAAGACCCUUGGCAGCGGAUAGUGAUGG [whbob_SS_Theo_B_th80]
Result: 0.111 µM
